- Test system: Human recombinant CD45 (Homo sapiens)
- Construct: purchased Sigma-Aldrich
- Experiment summary: biochemical
- Measurement parameters: read-out: IC50 value, CD45 inhibition
Experimental endpoint: IC50 (nM)

{"Compound string": "CCCCCCCC(=O)OO", "Test system": "Human recombinant CD45 (Homo sapiens)", "Assay result": 25}

----------
- Test system: YopH protein tyrosine phosphatase from Yersinia pestis (Yersinia pestis)
- Sequence (O68720 1-468): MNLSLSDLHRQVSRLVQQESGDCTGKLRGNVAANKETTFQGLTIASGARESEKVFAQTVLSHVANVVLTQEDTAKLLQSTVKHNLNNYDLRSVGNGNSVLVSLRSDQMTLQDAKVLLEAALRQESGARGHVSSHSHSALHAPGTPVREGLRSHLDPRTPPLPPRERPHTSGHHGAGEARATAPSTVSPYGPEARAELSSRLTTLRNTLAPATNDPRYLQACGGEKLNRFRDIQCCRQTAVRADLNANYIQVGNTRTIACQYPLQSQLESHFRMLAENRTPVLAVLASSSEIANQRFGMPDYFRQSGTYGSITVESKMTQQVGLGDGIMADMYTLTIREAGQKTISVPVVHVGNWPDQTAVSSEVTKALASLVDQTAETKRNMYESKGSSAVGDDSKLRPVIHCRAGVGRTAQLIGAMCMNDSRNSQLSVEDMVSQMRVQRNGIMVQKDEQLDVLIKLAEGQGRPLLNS
- Experiment summary: biochemical
pIC50: −log10 of the molar value.
Experimental endpoint: pIC50

{"Compound": "O=C(O)C1=CC(=C(c2ccc(O)c(C(=O)O)c2)c2ccc(O)c(C(=O)O)c2)C=CC1=O [ATA, aurintricarboxylic acid]", "Experimental endpoint": "pIC50", "Assay result": 8.00}

----------
- Test system: Human recombinant CD45 (Homo sapiens)
- Construct: purchased Sigma-Aldrich
- Sequence (P08575 609-1306 limits assumed): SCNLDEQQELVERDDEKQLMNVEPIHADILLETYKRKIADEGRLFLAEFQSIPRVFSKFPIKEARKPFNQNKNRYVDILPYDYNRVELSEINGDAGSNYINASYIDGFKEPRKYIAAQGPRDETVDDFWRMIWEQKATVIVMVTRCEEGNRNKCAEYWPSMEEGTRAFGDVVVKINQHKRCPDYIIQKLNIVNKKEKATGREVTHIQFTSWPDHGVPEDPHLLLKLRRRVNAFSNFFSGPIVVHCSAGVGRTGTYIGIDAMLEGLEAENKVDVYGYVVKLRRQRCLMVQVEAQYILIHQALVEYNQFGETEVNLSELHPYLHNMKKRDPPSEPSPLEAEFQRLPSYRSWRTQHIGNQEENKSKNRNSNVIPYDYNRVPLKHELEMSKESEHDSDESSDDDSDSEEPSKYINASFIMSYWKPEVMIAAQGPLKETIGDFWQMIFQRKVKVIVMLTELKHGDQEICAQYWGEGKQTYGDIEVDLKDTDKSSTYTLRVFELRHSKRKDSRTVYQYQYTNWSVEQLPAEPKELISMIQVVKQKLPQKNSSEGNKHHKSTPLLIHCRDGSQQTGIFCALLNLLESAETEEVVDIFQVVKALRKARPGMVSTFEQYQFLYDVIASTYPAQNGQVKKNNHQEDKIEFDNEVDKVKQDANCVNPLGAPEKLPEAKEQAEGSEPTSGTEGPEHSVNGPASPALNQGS
- Experiment summary: biochemical

{"Compound string": "O=C(O)C1=CC(=C(c2ccc(O)c(C(=O)O)c2)c2ccc(O)c(C(=O)O)c2)C=CC1=O", "Test system": "Human recombinant CD45 (Homo sapiens)", "IC50": "200 nM"}
